molecules and their reported GI50
- Tested on: SNB-75
- Assay method text: NCI tumour cell line growth inhibition, 48 h
Calls of active or inactive are those of the source. Cut-off read from the data, not from the text of the source: active = GI50 up to about 1.1 µM and inactive = higher.
Readout: GI50

[
  {
    "Structure smiles": "O=C(c1ccco1)N(C(=O)N1CCC(c2ccccc2)CC1)c1ccccc1",
    "Readout": "GI50",
    "Result": "1.95 µM (inactive)"
  },
  {
    "Structure smiles": "C[N+]1=C(c2cccnc2/C=N/O)OCC1(C)C",
    "Readout": "GI50",
    "Result": "> 100 µM (inactive)"
  },
  {
    "Structure smiles": "O=C(O)C1(Cc2ccccc2)Cc2ccccc2C1",
    "Readout": "GI50",
    "Result": "10.6 µM (inactive)"
  },
  {
    "Structure smiles": "Cn1c(=O)c2c(O)cc(N)nc2n(C)c1=O",
    "Readout": "GI50",
    "Result": "> 100 µM (inactive)"
  },
  {
    "Structure smiles": "Cc1ccc([N+](=O)[O-])cc1S(=O)(=O)Nc1ccc(C(=O)/C=C/c2cccs2)cc1",
    "Readout": "GI50",
    "Result": "19.3 µM (inactive)"
  }
]

###

compounds and their reported GI50
- Test system: HT-29
- Assay method text: NCI tumour cell line growth inhibition, 48 h
Calls of active or inactive are those of the source. Rule as the data show it: active = GI50 up to about 1.1 µM and inactive = higher. Where a SMILES comes first, the peptide text is derived from it. The star is where a group is joined. Boc = CC(C)(C)OC(=O)*

[
  {
    "Compound": "Nc1nc(O)nc2c1ncn2C1OC(CO)C(O)C1O (stereo unspecified)",
    "GI50": "> 100 µM (inactive)"
  },
  {
    "Compound": "O=C(O)C(CS)NCc1c2ccccc2nc2ccccc12 (stereo unspecified)",
    "GI50": "35.6 µM (inactive)"
  },
  {
    "Compound": "COc1ccc(C2c3cc(OC)c(OC)cc3C(Cc3ccc([N+](=O)[O-])cc3)C2c2ccc([N+](=O)[O-])cc2)cc1OC (stereo unspecified)",
    "GI50": "> 100 µM (inactive)"
  },
  {
    "Compound": "O=C(NC1CCN(Cc2ccccc2)CC1)c1ccccc1I",
    "GI50": "16.6 µM (inactive)"
  },
  {
    "Compound": "CCOC(=O)c1c(NS(=O)(=O)c2ccc(Br)cc2)sc2c1CCCC2",
    "GI50": "5.3 µM (inactive)"
  },
  {
    "Compound": "COc1ccc(-c2cc(-c3ccncc3)nc(N)c2-c2ccc(F)cc2)cc1",
    "GI50": "11.7 µM (inactive)"
  },
  {
    "Compound": "O=C1SC(SCc2ccccc2)=NC12CC2c1ccccc1 (stereo unspecified)",
    "GI50": "21.3 µM (inactive)"
  },
  {
    "Compound": "N#Cc1nc(C(F)(F)F)oc1N",
    "GI50": "> 100 µM (inactive)"
  },
  {
    "Compound": "CCOC(=O)C(CC(C)C)NC(=O)C(Cc1ccccc1)NC(=O)CNC(=O)OC(C)(C)C (stereo not drawn) (Boc-Gly-Phe-Leu-OEt; configuration not given here)",
    "GI50": "18.1 µM (inactive)"
  },
  {
    "Compound": "COc1cccc2c1OCC1Cc3ccccc3OC21 (stereo unspecified)",
    "GI50": "57.4 µM (inactive)"
  },
  {
    "Compound": "O=C1c2ccccc2C(=O)c2[nH]c(Cc3ccccc3F)nc21",
    "GI50": "32.1 µM (inactive)"
  }
]

###

- Test system: EKVX
- Assay method text: NCI tumour cell line growth inhibition, 48 h
Active and inactive are the calls of the source. No stated cut-off is given here; in the data, active = GI50 up to about 1.1 µM and inactive = higher. Where a SMILES comes first, the peptide text is derived from it. The star is where a group is joined. Boc = CC(C)(C)OC(=O)*
compounds and their reported GI50
Readout: GI50

[
  {
    "Compound": "O=C(O)C(CS)NCc1c2ccccc2nc2ccccc12 (stereo not given)",
    "Result": "38.5 µM (inactive)"
  },
  {
    "Compound": "C=CC(=C)CCC(Br)C(C)(C)Cl (stereo not given)",
    "Result": "> 100 µM (inactive)"
  },
  {
    "Compound": "CN1C(=O)C(O)CC1c1cccc(F)c1 (stereo not given)",
    "Result": "> 100 µM (inactive)"
  },
  {
    "Compound": "Sc1ncnc2nc[nH]c12 [MERCAPTOPURINE ANHYDROUS]",
    "Result": "263 µM (inactive)"
  },
  {
    "Compound": "COc1cc(C2=C(C#N)C(N)OC3=C2COc2ccccc23)cc(OC)c1OC (stereo not given)",
    "Result": "16.2 µM (inactive)"
  },
  {
    "Compound": "O=S(=O)(O)SC/C=C\\CSS(=O)(=O)O",
    "Result": "> 100 µM (inactive)"
  },
  {
    "Compound": "CC1(C)N=C(N)N=C(N)N1c1ccc(CCCCc2ccc(Cl)cc2Cl)cc1",
    "Result": "15.1 µM (inactive)"
  },
  {
    "Compound": "C=CC[C@H](N=C(SC)SC)C(=O)N1C(=O)N(C)[C@@H](C)[C@H]1c1ccccc1",
    "Result": "31.3 µM (inactive)"
  },
  {
    "Compound": "CN(C)CCNC(=O)Cn1ccc(=O)c2cc([N+](=O)[O-])ccc21",
    "Result": "> 100 µM (inactive)"
  },
  {
    "Compound": "CCOC(=O)C(CC(C)C)NC(=O)C(Cc1ccccc1)NC(=O)CNC(=O)OC(C)(C)C (stereo not drawn) (Boc-Gly-Phe-Leu-OEt; configuration not given here)",
    "Result": "22.3 µM (inactive)"
  },
  {
    "Compound": "Nc1ccc(-c2nc3cc(F)ccc3s2)cc1Br",
    "Result": "2.71 µM (inactive)"
  },
  {
    "Compound": "CN(C)C[C@H]1CC[C@@H](CN(C)C)C1=O",
    "Result": "16.7 µM (inactive)"
  },
  {
    "Compound": "NC(=S)N/N=C1\\CCCC\\C1=C/c1ccccc1",
    "Result": "99.8 µM (inactive)"
  },
  {
    "Compound": "CC1(C)CCOC(Sc2ccccc2)C1 (stereo not given)",
    "Result": "> 100 µM (inactive)"
  },
  {
    "Compound": "COc1cccc2c1OCC1Cc3ccccc3OC21 (stereo not given)",
    "Result": "73.3 µM (inactive)"
  }
]

###

- System: SK-MEL-2
- Assay method text: NCI tumour cell line growth inhibition, 48 h
Calls of active or inactive are those of the source. No stated cut-off is given here; in the data, active = GI50 up to about 1.1 µM and inactive = higher. Non-standard residues stand in square brackets, D forms with d. Residues, ends and D or L forms follow the SMILES beside them. *: point of attachment. Bn2Val = CC(C)[C@@H](C(=O)*)N(Cc1ccccc1)Cc1ccccc1; NH(4-Cl-benzyl) = Clc1ccc(CN*)cc1; NMeV = CN[C@H](C(=O)O)C(C)C; dNMeA = CN[C@H](C)C(=O)O
Labels: active, inactive

[
  {
    "Molecule": "Cc1cc(C)[n+](CCOc2ccc(/C(=C(/Cl)c3ccccc3)c3ccccc3)cc2)c(C)c1.[O-][Cl+3]([O-])([O-])[O-]",
    "Category label": "active"
  },
  {
    "Molecule": "CCOC(=O)NC(Nc1cc(Cl)ccc1OC)(C(F)(F)F)C(F)(F)F",
    "Category label": "inactive"
  },
  {
    "Molecule": "OC1CCC(COC(c2ccccc2)(c2ccccc2)c2ccccc2)O1 (stereo not drawn)",
    "Category label": "inactive"
  },
  {
    "Molecule": "C=CC[C@H](N=C(SC)SC)C(=O)N1C(=O)N(C)[C@@H](C)[C@H]1c1ccccc1",
    "Category label": "inactive"
  },
  {
    "Molecule": "Nc1nc(N)c(NC(=O)CCCO)c(=O)[nH]1",
    "Category label": "inactive"
  },
  {
    "Molecule": "CC(=O)Oc1c(N2CCCCC2)c(C(=O)c2ccccc2)c(O)c2ccn(N(C)C)c12",
    "Category label": "inactive"
  },
  {
    "Molecule": "Nc1nc(=O)[nH]c2c1cnn2COCCO",
    "Category label": "inactive"
  },
  {
    "Molecule": "C=CCC(NCc1ccccc1)[C@H](OCc1ccccc1)[C@@H]1COC(C)(C)O1 (stereo partly drawn)",
    "Category label": "inactive"
  },
  {
    "Molecule": "Cn1c(=O)n2c(=O)n(C)c(=O)n2c1=O",
    "Category label": "inactive"
  },
  {
    "Molecule": "C1CCNCC1.CN(C)c1ccc(/C=C2/NC(=S)NC2=O)cc1",
    "Category label": "inactive"
  },
  {
    "Molecule": "CCOC(=O)[C@@]12C[C@](/C=C/OC)(O[Si](C)(C)C)[C@@]13c1cc(OC)c(OC)cc1CCN3C(=O)C2O (stereo partly drawn)",
    "Category label": "inactive"
  },
  {
    "Molecule": "COc1ccc(-c2nc3ccc(C)cc3o2)c(OC)c1",
    "Category label": "inactive"
  },
  {
    "Molecule": "CC(C)[C@H](NC(=O)[C@H](C(C)C)N(Cc1ccccc1)Cc1ccccc1)C(=O)N(C)[C@H](C(=O)N1CCC[C@H]1C(=O)N(C)[C@H](C)C(=O)NCc1ccc(Cl)cc1)C(C)C (Bn2Val-V[NMeV]P[dNMeA]-{NH(4-Cl-benzyl)})",
    "Category label": "inactive"
  },
  {
    "Molecule": "CCOC(=O)c1cc(-c2cc(OC)c(OC)c([N+](=O)[O-])c2)c([N+](=O)[O-])n1C",
    "Category label": "inactive"
  },
  {
    "Molecule": "CN(C)/C=C1\\CCc2ccc([N+](=O)[O-])cc2C1=O",
    "Category label": "inactive"
  },
  {
    "Molecule": "Cc1sc2nc(-c3ccc([N+](=O)[O-])cc3)c(/C=N/N=C(N)N)n2c1C",
    "Category label": "active"
  },
  {
    "Molecule": "Nc1nc(Cl)c(N)c(NCC2(CO)CCC2)n1",
    "Category label": "inactive"
  },
  {
    "Molecule": "CC1(C)N=C(N)N=C(N)N1c1ccc(CCCCc2ccc(Cl)cc2Cl)cc1",
    "Category label": "active"
  },
  {
    "Molecule": "Cc1nn(C(=O)c2ccccc2O)c2c1C(c1ccco1)SC(=N)N2 (stereo not drawn)",
    "Category label": "inactive"
  },
  {
    "Molecule": "Cc1ccc([N+](=O)[O-])cc1S(=O)(=O)Nc1ccc(C(=O)/C=C/c2cccs2)cc1",
    "Category label": "inactive"
  },
  {
    "Molecule": "O=S1(=O)c2ccccc2N2CCCc3cc(Cl)cc1c32",
    "Category label": "inactive"
  },
  {
    "Molecule": "C/C=C\\C(CC(=O)OC)CC(=O)N(CCC1CN(S(=O)(=O)C(F)(F)F)c2ccccc21)Cc1ccc(OC)cc1OC (stereo not drawn)",
    "Category label": "inactive"
  },
  {
    "Molecule": "Cc1nnc(N/N=C2/C(=O)Nc3c(Cl)cc(Cl)cc32)n1N",
    "Category label": "inactive"
  },
  {
    "Molecule": "CCOC(=O)c1nnsc1NC(=O)Nc1ccc(Cl)cc1",
    "Category label": "inactive"
  },
  {
    "Molecule": "C[N+]1=C(c2cccnc2/C=N/O)OCC1(C)C",
    "Category label": "inactive"
  },
  {
    "Molecule": "COCC(O)Cn1ccnc1[N+](=O)[O-] (stereo not drawn) [MISONIDAZOLE]",
    "Category label": "inactive"
  },
  {
    "Molecule": "COC(=O)C1CCc2c(OC)ccc(OC)c2C1=O (stereo not drawn)",
    "Category label": "inactive"
  },
  {
    "Molecule": "COc1cc([C@H]2Oc3cc(O)c4c(=O)cc(-c5ccccc5)oc4c3O[C@@H]2CO)ccc1O",
    "Category label": "inactive"
  }
]
